FYI, the data here is from patent US8685974B2.

# key: entry, value: log p
# setup-conditions: pH 2.7
Marks after values point to notes of the source that are not given here.

Below, each entry is followed by its recorded log p result.
>>> result("CC(C)Nc1nccc(-c2cn(CC(F)F)nc2-c2ccc(Cl)s2)n1")
"2.66^[b]"
>>> result("CCC(C)n1cc(-c2ccnc(NC(=O)N(C)C)c2)c(-c2ccc(Cl)s2)n1 (stereo not drawn)")
"2.19^[b]"

Here is the next item to consider.
Recorded log p (compound CC(C)n1ncc(-c2ccncc2)c1-c1ccc(I)s1 ): 1.78^[b]

###

# assay-explanation: physchem
# setup-conditions: pH 2.7
log p values for the compounds below.
I'd appreciate a reply containing only the number, no unit.

>>> numeric_result("CCC(C)n1ncc(-c2ccncc2)c1-c1ccc(F)s1 (stereo not shown)")
1.84

Field log p (entry CCC(C)n1ncc(-c2ccncc2)c1-c1ccc(Cl)s1 (stereo not shown) ) reads 1.94

What the record says about CCC(C)n1ccc(-c2cc(C)cs2)n1 (stereo not shown) : log p is 3.63

The compound listed as Cc1n[nH]c(-c2ccc(Cl)s2)c1-c1ccncc1 shows log p equal to 1.07

###

# Test system: Leptosphaeria nodorum
# assay-explanation: Leptosphaeria nodorum test (wheat) / protective
# Type: in vivo
# setup-conditions: 500 ppm active compound, protective spray, evaluated 7-9 days after inoculation
measured-metric: efficacy (%)
The reply should contain only the number, in %.

Would you please look over these solved cases?
>>> numeric_result("CC1(Cn2cc(-c3ccncc3)c(-c3ccc(Br)s3)n2)CC1(Cl)Cl (stereo not drawn)")
80
>>> numeric_result("CC(C)C(=O)Nc1cc(-c2cn(C(C)C)nc2-c2ccc(Cl)s2)ccn1")
90
>>> numeric_result("CCC(=O)Nc1cc(-c2cn(C(C)CC)nc2-c2cc(Cl)cs2)ccn1 (stereo not drawn)")
95
>>> numeric_result("CC(C)n1cc(-c2ccnc(NC(=O)N(C)C)c2)c(-c2ccc(Cl)s2)n1")
90
>>> numeric_result("Brc1ccc(-c2n[nH]cc2-c2ccncc2)s1")
78

Next up:
Input CCC(=O)Nc1cc(-c2cn(C(C)C)nc2-c2ccc(Cl)s2)ccn1 . Output efficacy: 90

###

# System: Alternaria solani
# assay-explanation: Alternaria test (tomato) / protective
# Format: in vivo
# setup-conditions: 500 ppm active compound, protective spray, evaluated 7 days after inoculation
efficacy by entry:
# value in %; strip the unit string

Recorded efficacy, per entry:
>>> numeric_result("CC1(Cn2cc(-c3ccncc3)c(-c3ccc(Br)s3)n2)CC1(Cl)Cl (stereo not drawn) [Example 386]")
89
>>> numeric_result("CCC(C)n1cc(-c2ccnc(NC(=O)C(C)C)c2)c(-c2ccc(Cl)s2)n1 (stereo not drawn) [Example 234]")
90
>>> numeric_result("CC(C)n1cc(-c2ccnc(NC3CC3)n2)c(-c2ccc(Cl)s2)n1 [Example 177]")
90

Data point: CC(=O)N(C(C)=O)c1cc(-c2cn(C(C)C)nc2-c2ccc(Cl)s2)ccn1 [Example 304] ; efficacy = 95

Noted for CCC(=O)Nc1cc(-c2cn(C(C)CC)nc2-c2ccc(Cl)s2)ccn1 (stereo not drawn) [Example 225] : its efficacy reads 95

// efficacy value for CCC(=O)Nc1cc(-c2cn(CC)nc2-c2ccc(Cl)s2)ccn1 [Example 263] : 95

What the record says about CCn1cc(-c2ccncc2)c(-c2ccc(F)s2)n1 [Example 377] : efficacy is 100

Sample CC(C)C(=O)Nc1cc(-c2cn(C(C)C)nc2-c2ccc(Cl)s2)ccn1 [Example 257] ; efficacy observed: 95
